This document collects pKi values reported for Cannabinoid receptor 2 (Homo sapiens).
pKi: −log10 of the molar value.
TEST_READOUT: pKi

[[record]]
molecule = "CCCCCCC(C)(C)c1ccc([C@H]2CCC[C@H](O)C2)cc1 (relative stereo)"
test_readout = "pKi"
readout_value = 6.75

[[record]]
molecule = "CCCCCCC(C)(C)c1ccc([C@H]2CCC[C@@H](O)C2)c(OC)c1 (relative stereo)"
test_readout = "pKi"
readout_value = 6.09

[[record]]
molecule = "CCCCCC(C)(C)c1ccc([C@H]2CCC[C@@H](O)C2)c(OC)c1 (relative stereo)"
test_readout = "pKi"
readout_value = 6.26

[[record]]
molecule = "CCCCCC(C)(C)c1ccc([C@H]2CCC[C@H](O)C2)c(OC)c1 (relative stereo)"
test_readout = "pKi"
readout_value = 6.16

